test: Half-lives and pharmacokinetic parameters of polypeptides vs HM-1; details: in vivo; read-out: AUC0-∞
Peptide text beside a SMILES is read from it. * marks the point of attachment. Hexanoyl(6-maleimido) = O=C1C=CC(=O)N1CCCCCC(=O)*; Propanoyl(3-maleimido) = O=C1C=CC(=O)N1CCC(=O)*
The entries below come with measured AUC(0-inf) values attached.

{"molecule": "C[C@H](NC(=O)CNC(=O)[C@H](CCCNC(=N)N)NC(=O)CCCCCN1C(=O)C=CC1=O)C(=O)N[C@@H](CC(=O)O)C(=O)N[C@@H](CCCNC(=N)N)C(=O)N[C@@H](C)C(=O)NCC(=O)NCC(=O)NCC(=O)NCC(=O)N[C@@H](CCCNC(=N)N)C(=O)NCC(=O)N[C@@H](CC(=O)O)C(=O)O [X5] ({Hexanoyl(6-maleimido)}-RGADRAGGGGRGD-OH)", "AUC(0-inf) / ng·h/mL": 27900}
{"molecule": "C[C@H](NC(=O)CNC(=O)[C@H](CCCNC(=N)N)NC(=O)CCN1C(=O)C=CC1=O)C(=O)N[C@@H](CC(=O)O)C(=O)N[C@@H](CCCNC(=N)N)C(=O)N[C@@H](C)C(=O)NCC(=O)N[C@@H](CO)C(=O)N[C@@H](CO)C(=O)N[C@@H](CO)C(=O)N[C@@H](CO)C(=O)N[C@@H](CCCNC(=N)N)C(=O)NCC(=O)N[C@@H](CC(=O)O)C(=O)O [P13] ({Propanoyl(3-maleimido)}-RGADRAGSSSSRGD-OH; C-terminus assumed)", "AUC(0-inf) / ng·h/mL": 31800}
{"molecule": "C[C@H](NC(=O)CNC(=O)[C@H](CCCNC(=N)N)NC(=O)CCCCCN1C(=O)C=CC1=O)C(=O)N[C@@H](CC(=O)O)C(=O)N[C@@H](CCCNC(=N)N)C(=O)N[C@@H](C)C(=O)NCC(=O)N[C@@H](CO)C(=O)N[C@@H](CO)C(=O)N[C@@H](CO)C(=O)N[C@@H](CO)C(=O)N[C@@H](CCCNC(=N)N)C(=O)NCC(=O)N[C@@H](CC(=O)O)C(=O)O [P14] ({Hexanoyl(6-maleimido)}-RGADRAGSSSSRGD-OH; C-terminus assumed)", "AUC(0-inf) / ng·h/mL": 32200}

----------
tested on: splenic lymphocytes; assay: Proliferation of splenic lymphocytes in mice (ConA, MTT); assay type: cell-based; conditions: polypeptide dose 0.05 μM, ConA-stimulated mouse splenic lymphocytes, 48 h
Peptide text beside a SMILES is read from it. * marks the point of attachment. X52 = O=C1C=CC(=O)N1c1ccccc1CCCCCCCC(=O)*; X61 = O=C1C=CC(=O)N1c1cccc(CCCC(=O)*)c1; X79 = O=C1C=CC(=O)N1c1cccc(CCC(=O)*)c1

{"compound": "C[C@H](NC(=O)CNC(=O)[C@H](CCCNC(=N)N)NC(=O)CCc1cccc(N2C(=O)C=CC2=O)c1)C(=O)N[C@@H](CC(=O)O)C(=O)N[C@@H](CCCNC(=N)N)C(=O)N[C@@H](C)C(=O)NCC(=O)NCC(=O)NCC(=O)NCC(=O)N[C@@H](CCCNC(=N)N)C(=O)NCC(=O)N[C@@H](CC(=O)O)C(=O)O [X26] (X79-RGADRAGGGGRGD-OH)", "result_units": "%", "Inhibition rate (%)": 15.46}
{"compound": "C[C@H](NC(=O)CNC(=O)[C@H](CCCNC(=N)N)NC(=O)CCCCCCCc1ccccc1N1C(=O)C=CC1=O)C(=O)N[C@@H](CC(=O)O)C(=O)N[C@@H](CCCNC(=N)N)C(=O)N[C@@H](C)C(=O)NCC(=O)NCC(=O)NCC(=O)NCC(=O)N[C@@H](CCCNC(=N)N)C(=O)NCC(=O)N[C@@H](CC(=O)O)C(=O)O [X19] (X52-RGADRAGGGGRGD-OH)", "result_units": "%", "Inhibition rate (%)": 24.59}
{"compound": "C[C@H](NC(=O)CNC(=O)[C@H](CCCNC(=N)N)NC(=O)CCCc1cccc(N2C(=O)C=CC2=O)c1)C(=O)N[C@@H](CC(=O)O)C(=O)N[C@@H](CCCNC(=N)N)C(=O)N[C@@H](C)C(=O)NCC(=O)NCC(=O)NCC(=O)NCC(=O)N[C@@H](CCCNC(=N)N)C(=O)NCC(=O)N[C@@H](CC(=O)O)C(=O)O [X27] (X61-RGADRAGGGGRGD-OH)", "result_units": "%", "Inhibition rate (%)": 20.23}

The values you see were collected from patent US20200270309A1.
